Test system: clonal bacterial isolates from 11 diverse soils
Type: cell-based, soil bacteria
measurement-context: antibiotic as sole carbon source at 1 g/L in SCS media pH 5.5, 22° C., positive growth at least 10^8 cells/mL
measured-parameter: soils from which clonal isolates capable of subsisting on the antibiotic were obtained

[[record]]
compound = "Cc1onc(-c2c(Cl)cccc2Cl)c1C(=O)N[C@@H]1C(=O)N2[C@@H]1SC(C)(C)[C@@H]2C(=O)O"
experimental_result = "9 out of 11 soils"

[[record]]
compound = "CC1(C)S[C@@H]2[C@H](NC(=O)Cc3ccccc3)C(=O)N2[C@H]1C(=O)O"
experimental_result = "all the soils tested"

[[record]]
compound = "CC1(C)S[C@@H]2[C@H](NC(=O)C(C(=O)O)c3ccccc3)C(=O)N2[C@H]1C(=O)O (stereo partly shown)"
experimental_result = "all the soils tested"

